# systemUnderTest: Nuclear receptor subfamily 1 group I member 2 (Homo sapiens) (UniProt O75469)
# Sequence (O75469 whole entry, looked up): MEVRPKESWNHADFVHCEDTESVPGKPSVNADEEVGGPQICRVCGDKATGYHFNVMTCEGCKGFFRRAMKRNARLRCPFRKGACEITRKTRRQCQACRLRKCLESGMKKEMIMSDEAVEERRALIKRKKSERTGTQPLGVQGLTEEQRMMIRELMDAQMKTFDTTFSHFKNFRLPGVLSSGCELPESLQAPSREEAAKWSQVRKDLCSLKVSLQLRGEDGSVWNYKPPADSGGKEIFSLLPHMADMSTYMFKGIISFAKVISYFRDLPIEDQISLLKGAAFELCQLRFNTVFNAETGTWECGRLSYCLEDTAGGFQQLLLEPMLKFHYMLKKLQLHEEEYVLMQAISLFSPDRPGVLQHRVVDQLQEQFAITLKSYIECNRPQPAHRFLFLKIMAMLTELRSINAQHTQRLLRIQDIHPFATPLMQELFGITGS
# assayMethodText: Human pregnane X receptor (PXR) small molecule agonists, qHTS assay (AID 1346982); further: nearly all actives have a fitted effect of over 35% in size; further: potency means the concentration at half of the fitted maximal effect
# studyConditions: PXR-Luc HepG2, CYP3A4 luciferase reporter, 24 h; series mostly up to 92.4 µM
Records with an inconclusive call do not appear. The source made the active and inactive calls. The call rests on the fitted dose curve; in most records, active means well fitted activation curve with a large enough effect in the repeat runs; inconclusive means weak or mixed curves; inactive means no such curve, though single readings can be large or run the other way.

molecule | Potency
[Cl][Dy]([Cl])[Cl] | inactive
O=C1OC2(c3ccccc31)c1ccc(O)c(Br)c1Oc1c2ccc(O)c1Br | inactive
Cn1c(=O)[nH]c2ncn(C)c2c1=O | inactive
Cc1cc(F)ccc1-c1cc(N2CC[C@@H](O)[C@H]2CO)ncc1N(C)C(=O)C(C)(C)c1cc(C(F)(F)F)cc(C(F)(F)F)c1 | 17 µM (active)
c1ccc2cc3c4ccccc4c4ccccc4c3cc2c1 | 4.88 µM (active)
CC(C)(C)C1=CC(=O)C(C(C)(C)C)=CC1=O | 18.8 µM (active)
O=[N+]([O-])c1ccc(CO)cc1 | inactive
O=C(CCCCCCCCc1cccnc1)N1CCC(C=C(c2ccccc2)c2ccccc2)CC1 | 5.45 µM (active)
C=C1C(CCl)(CCl)C2(Cl)C(Cl)C(Cl)C1(Cl)C2(Cl)Cl (centres undefined) | 8.53 µM (active)
NCc1ccco1 | inactive
O=C1CCC(=O)N1 | inactive
CN(C/C=C/c1ccccc1)Cc1cccc2ccccc12 | inactive
C=Cc1ccncc1 | inactive
O[Si](c1ccccc1)(c1ccccc1)c1ccccc1 | 27.3 µM (active)
c1ccc(-c2ccc(C(c3ccccc3)n3ccnc3)cc2)cc1 (centres undefined) | 23.7 µM (active)
CCCCCCCCCCCCCCCCC(C(=O)O)C(O)(CC(=O)O)C(=O)O (centres undefined) | inactive
CC(=O)Nc1ccc(N=Nc2cc(C)ccc2O)cc1 | 9.69 µM (active)
C1=CCCC1 | inactive
Cc1ccc2nc(-c3ccc(N)cc3)sc2c1S(=O)(=O)O | 2.69 µM (active)
O=C1CCC/C=C\CCCCCCCCCC1 | 30.6 µM (active)
c1ccc(-c2ccccc2-c2ccccc2)cc1 | 61.1 µM (active)
CCOC=C(C(=O)OCC)C(=O)OCC | inactive
Cc1cccc2c1ccc1ccccc12 | inactive
CC(C)(C)c1ccc(OC2CCCCC2O)cc1 (centres undefined) | 27.3 µM (active)
Clc1cccc(Cl)n1 | inactive
CCC(C)(C)c1ccc(CC(C)CN2C[C@@H](C)O[C@@H](C)C2)cc1 (some centres undefined) | inactive
O=C(Cl)c1ccc(Cl)cc1Cl | inactive
O=S(=O)(c1ccc(OCc2ccccc2)cc1)c1ccccc1O | 61.1 µM (active)
CC1=C(/C=C/C(C)=C/C=C/C(C)=C\C(=O)O)C(C)(C)CCC1 | 34.5 µM (active)
Brc1cc(Br)cc(Br)c1 | inactive
CN(C[C@@H](CC[N+]12CCC(C3CCCCC3)(CC1)CC2)c1ccc(Cl)c(Cl)c1)C(=O)c1cc(C(F)(F)F)cc(C(F)(F)F)c1 | inactive
COc1cc(/C=C/C(=O)CC(=O)/C=C/c2ccc(O)c(OC)c2)ccc1O | 24.5 µM (active)
Clc1nc(C(Cl)(Cl)Cl)c(Cl)c(Cl)c1Cl | inactive
CO[Si](OC)(c1ccccc1)c1ccccc1 | 34.4 µM (active)
Cc1cc(C)c(O)c(C(C)(C)C)c1 | inactive
CC(C=O)c1ccccc1 (centres undefined) | inactive
N#CCCOCCC#N | inactive
Nc1cc([N+](=O)[O-])cc(Cl)c1O | inactive
N#Cc1nc(Cl)c(Cl)c(Cl)c1Cl | 9.69 µM (active)
CCc1c(C)cc(N)c(CC)c1N | 24.3 µM (active)
O=C1OCc2ccccc21 | inactive
[Cl][Eu]([Cl])[Cl] | inactive
CCCC(C)C=O (centres undefined) | inactive
C/C=C/C(=O)C1=C(C)C=CCC1(C)C | inactive
CCCCCCCCSCc1cc(C)c(O)c(CSCCCCCCCC)c1 | inactive
C=COCCCC | inactive
Cc1ccc(S(=O)(=O)C(I)I)cc1 | 19.3 µM (active)
Cc1ccc2sc3cccc(C)c3c2c1 | inactive
Cc1ccc2n[nH]nc2c1 | inactive
